Tested on: PF3D7_0420300 AP2 domain 1 (GST-tagged)
Test: gcPBM binding intensity (ln(normalized median fluorescence intensity)); higher = stronger DNA binding
The full ranking holds about 25,000 sequences; the median of “ln(normalized median fluorescence intensity)” is about 9.3, and the highest 2% start at about 10. This excerpt belongs to a sample that is enriched for the highest values.
A collection of sequences and their measured gcPBM binding intensity (ln)
Please give the numeric answer without any surrounding text.

See these solved cases before continuing.
{"Sequence text": "TGTATTAATATGGTAATACACACTAATATACTTTTG [CACACA_site1610]", "Observed result": 9.38}
{"Sequence text": "AAAAACAAAAAAGAAGCACACATATATATATATATA [CACACA_site8779]", "Observed result": 9.6}
{"Sequence text": "TATATATTTCATAATACACACGAAAAAAAAAAAAAA [CACACA_site8972]", "Observed result": 9.31}
{"Sequence text": "GGACATTTTTATAAGGTGCACGGTTTTGATATTACT [GTGCAC_site9892]", "Observed result": 9.46}

// moving on: another record for gcPBM binding intensity (ln)
Form field gcPBM binding intensity (ln), entry TTCATTCAAATTAACGTGCACATTATTAGTAAAAAC : 9.08

These entries and their values trace back to the supplement of paper PMC11417369.
